DETAILS: in water, 333.15 K
VALUE TYPE: solubility (mole fraction)
Just the number, please.

Output solubility (mole fraction) of "C[C@H]1[C@H](C)CC[C@]2(C(=O)O[C@@H]3O[C@H](CO[C@@H]4O[C@H](CO)[C@@H](O[C@@H]5O[C@@H](C)[C@H](O)[C@@H](O)[C@H]5O)[C@H](O)[C@H]4O)[C@@H](O)[C@H](O)[C@H]3O)CC[C@]3(C)C(=CC[C@@H]4[C@@]5(C)C[C@@H](O)[C@H](O)[C@@](C)(CO)[C@@H]5CC[C@]43C)[C@H]12"
1.02e-05

* * *

DETAILS: in methanol, 283.15 K
VALUE TYPE: solubility (mole fraction)
Just the number, please.

Output solubility (mole fraction) of "C[C@H]1[C@H](C)CC[C@]2(C(=O)O[C@@H]3O[C@H](CO[C@@H]4O[C@H](CO)[C@@H](O[C@@H]5O[C@@H](C)[C@H](O)[C@@H](O)[C@H]5O)[C@H](O)[C@H]4O)[C@@H](O)[C@H](O)[C@H]3O)CC[C@]3(C)C(=CC[C@@H]4[C@@]5(C)C[C@@H](O)[C@H](O)[C@@](C)(CO)[C@@H]5CC[C@]43C)[C@H]12"
0.000904
